Test system: MS2 coat protein
MEASUREMENT PROTOCOL: apparent KD of MS2 coat protein; higher = weaker reporter binding
CONDITION SET: Eterna round: R107; input ligand: theophylline 2 mM
So basically: apparent KD of MS2 coat protein at 60 nM or higher? That is 1.0. Lower than 60 nM? That is 0.0.

Form field: apparent KD of MS2 coat protein at least 60 nM? Entry: AAAAUCCUACCUGAGGAUCACCCAGGUGAAGGAGCGCCCGAAAGGGCAGGUAGGUCGCACCUGAGGAUCACCCUGGUAAACCUAA [ArgEX 22 #DoubleMS2 #OpenEnded]
0.0

Form field: apparent KD of MS2 coat protein at least 60 nM? Entry: UAGCGAUAAUCUGAUACCAGACGUGUACUCUCCUCAGACAUGAGCAUCAGCCAUGUAUGCGUCCCUUGGCAGCAGAGAUAGGAGA [Theo B Ex t5b]
0.0

Form field: apparent KD of MS2 coat protein at least 60 nM? Entry: GCAUCCUAGUCGGCCGCCACUGCAGGAUCGGCGGCAGAUCCUCAACAUGAGGAUCACCCAUGUAGCAGGACCGGGACUAGGAUGC [(Trp1)-(TM)''-(TM)'-(Ms2)-(Trp2)_Design2]
0.0

Form field: apparent KD of MS2 coat protein at least 60 nM? Entry: AUGUAGAACCGAAGGAGCGCGAUAACAUGAGGAUCACCCAUGUAGUUUUGGUGGCUUCGAUCGCAGGUAGGUCGCGGAAGUAGUA [#03 Exclusion - Arginine B]
1.0

Form field: apparent KD of MS2 coat protein at least 60 nM? Entry: UUUACAUGAGGAUCACCCAUGUGCCAUGAUACCAGACAUGAAAAUGUCCCUUGGCAGCAUGAGUGAUAUGCGUCGGAAACGACGC [Jundrov]
1.0

Form field: apparent KD of MS2 coat protein at least 60 nM? Entry: GUUAUGAUAAGAAGGAGCGUCGAAAAUGGGUAAACAUGAGGAUCACCCAUGUAAAGGGAACGACAGGUAGGUCGCUUAUUAUAAC [AstromonsSSArgB#20]
1.0

Form field: apparent KD of MS2 coat protein at least 60 nM? Entry: AUACAUGAGGAUCACCCAUGUGAUGGCCGGCGAGGACCGGUACGGCCGCCACUCGUGAUCCGUCCUGAAAGCAAAGCUCCCAGCA [Lalazare]
1.0

Form field: apparent KD of MS2 coat protein at least 60 nM? Entry: GCGCGGCGAGUGCGGCGUGUUCCGCUCCGUCGAGGACCGGUACGGCCGCCACUCGACAUGAGGAUCACCCAUGUCGCCGCGCGCG [Exclusion - Tryptophan A Attempt #3]
0.0

Form field: apparent KD of MS2 coat protein at least 60 nM? Entry: UCUAGUGCGGGAAGGAGCGCCAUACAUGAGGAUCACCCAUGUUGAGCAUGCUCGUGUACUAGGCAGGUAGGUCGCCCGCUCUACG [Radionle]
0.0

Form field: apparent KD of MS2 coat protein at least 60 nM? Entry: UUCGUAUUGUCGGCCGCCACUGCAACAUGAGGAUCACCCAUGUAAAUUUGGGAGUAGUUAUAUUACAGGACCGGGACAAUAGUAA [JR_ExcTryptoB_Sub019]
1.0

Form field: apparent KD of MS2 coat protein at least 60 nM? Entry: AAUAAACAUGAGGAUCACCCAUGUAGGGUGCGAGGACCGGUACGGCCGCCACUCGGGUGAAAACAUGAGGAUCACCCAUGUUAAA [Cloverleaf #DoubleMS2 #GUTurnoff]
1.0

Form field: apparent KD of MS2 coat protein at least 60 nM? Entry: AGGCUUCGCAUAGGAAAACUAUGUGAAGCCCGAGGACCGGUACGGCCGCCACUCGUCCUCAACAUGAGGAUCACCCAUGUAAUAA [Mat - Exclusion - Trytophan A - D1]
0.0

====

Tested on: K4 kissing-loop RNA reporter;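 note: bound reporter read as fluorescence of individual clusters on recovered sequencing chips by microscopy, with normalized cluster intensities fitted with a binding model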
MEASUREMENT PROTOCOL: apparent KD of K4 kissing-loop reporter; higher = weaker reporter binding
CONDITION SET: Eterna round: R107; input ligand: tryptophan 2.4 mM
So basically: apparent KD of K4 kissing-loop reporter at 100 nM or higher? That is Fulfilled. Lower than 100 nM? That is Not fulfilled.

Form field: apparent KD of K4 kissing-loop reporter at least 100 nM? Entry: UAUUAAUUGACGGCCGCCACUAUUGUGAUUUAUUUGUUUGAGUGAUGUUUUGAUGUUUGAUUUUGUAGGACCGGGUUAUGUGUUA [zwzcmullin]
Fulfilled

Form field: apparent KD of K4 kissing-loop reporter at least 100 nM? Entry: ACGUGCACCAGUGAUGUUGGAAAAUAUGAAGGAGCGGGAGAAAACCCAGGUAGGUCGCAUAAUUGCACGAGCCACGAAAGUGGCA [#15 K4 Arginine A Same State]
Not fulfilled

Form field: apparent KD of K4 kissing-loop reporter at least 100 nM? Entry: GAAAGAAAGUAUGAUACCAGACACCCGAGUGAUGUUCGGAGCAGUGUGUUGUUCUUUUAAGUCCCUUGGCAGCAUAAAAGAAAAG [whbob_SS_Theo_B_sa85]
Not fulfilled

Form field: apparent KD of K4 kissing-loop reporter at least 100 nM? Entry: CUAUCGGUGCCAGUGAUGUUGGUACCGCCACGAGGACCGGUACGGCCGCCACUCGCAUUAGAUGAUCACACAGUGUAUACUGCUA [Aleusorza]
Fulfilled

Form field: apparent KD of K4 kissing-loop reporter at least 100 nM? Entry: GGUGUUGUUUGUGCCGCCUUCCUCGUUCCUCGAGGACCGGUACGGCCGCCACUCGAGUGAUGUUUGGGUAGCGAUCCCUGCUAGU [Bdazzled - #12 Exc. Tryptophan A]
Fulfilled

Form field: apparent KD of K4 kissing-loop reporter at least 100 nM? Entry: GGACCUCAGUGAUGUUGAGGUAACGCUGAUACCAGUGACUUAAUUCGCCCUUGGCAGCAGUCCACCGAGGUAUCUGAUUAGGUCU [Default title]
Fulfilled

====

System: MS2 coat protein
MEASUREMENT PROTOCOL: apparent KD of MS2 coat protein; higher = weaker reporter binding
CONDITION SET: Eterna round: R107; input ligand: theophylline 20 uM
Dear colleague, classification is by apparent KD of MS2 coat protein, with ranges listed here: band 1 = under 30 nM, band 2 = from 30 nM up to 60 nM, band 3 = 60 nM and over

Please report the category associated with GCUCACAUGAGGAUCACCCAUGUACGUCCGCGAGGACCGGUACGGCCGCCACUCGUGUUAGCUUCAAACUUGUUAGUGUUAAACA [Atleerge] , nothing else.
band 2

Please report the category associated with ACGGGCAUGGCGGCCGCCACUGGUUGGCGUGCGGAUGAGGGAACAUGAGGAUCACCCAUGUUGGUUAGGACCGGGCUGGCGUCGA [kkymullin] , nothing else.
band 2

Please report the category associated with ACAUGAGGAUCACCCAUGUGAGAUAGGGAAGGAGCGCAGGAGGAUGCAGGUAGGUCGCCCACAUGAGGAUCACCCGUGUCUGGAG [#11 Exclusion - Arginine A] , nothing else.
band 2

Please report the category associated with CUAUAUAUAUCGGCCGCCACUUACUCAUGAGGUAACAACAUGAGGAUCACCCAUGUUUGAGGAUCAAGGACCGGGAUAUAUAUAG [AstrosSSTryB#15] , nothing else.
band 2

Please report the category associated with UGUAAUGUGGGAAGGAGCGCAUACUUCACAUGAGGAUCACCCAUGUCAAGACGUGAGUCAGUGCAGGUAGGUCGCCUAGUUUAGA [Same State - Arginine B (Freestyle 18)] , nothing else.
band 3

Please report the category associated with GUGGAGACAUGAGAUACCAGUCUCUUUAACAUGAGGAUCACCCAUGUAAUGCUCCUCGGAGACCCUUGGCAGCUCAGUAUGAUGA [#09 Exclusion-TheophyllineB] , nothing else.
band 3

Please report the category associated with AGCGACAUGCGUGAUACCAGCUACAUGAGGAUCACCCAUGUACGUCAGUAAUGACUGUGUAGCCCUUGGCAGCAUAAUGCAUGUC [Exclusion - Theophylline B (Freestyle 18)] , nothing else.
band 2

Please report the category associated with AAUGCUGCCAAGGAUUCCUCAUGAGCAGAUACCAGCUAGGAAACUAGCCCUUGGCAGCUGCAACAUGAGGAUCACCCAUGUAAUA [(T)'-(M)'-(T1)-(T2)-(M1)-(M2)_Design7] , nothing else.
band 3

Please report the category associated with AUGACUCACAAAGAAGAUAAAAUGGGUGAACGAGGACCGGUACGGCCGCCACUCGGACAUGAGGAUCACCCAUGUCCAUGUGCAA [#24 Exclusion Tryptophan A] , nothing else.
band 1

Please report the category associated with ACGUAAUGCGGAAGGAGCGUCAUUUUAAAACAUGAGGAUCACCCAUGUAAUAUUUUUGUGUGACAGGUAGGUCGCCGAAGUACGA [#07 Same State - Arginine B] , nothing else.
band 1

Please report the category associated with AGCACUGUGACGGCCGCCACUAUAUUAGGGUGGUCAGGUUCAUAAAUACAUGAGGAUCACCCAUGUAGGACCGGGUCUCAGUGCA [Omei Trp Exc B A v3] , nothing else.
band 1

Please report the category associated with AGUCUUAAUGGAAGGAGCGCAGUCAUAACAUGAGGAUCACCCAUGUCGAUGUGAGGGUCAUUGCAGGUAGGUCGCCAUACUAAGA [Same State - Arginine B (Freestyle 4)] , nothing else.
band 1

Please report the category associated with ACCGGCACCUAGGAUACCAGAUCCACAACAAACAUGAGGAUCACCCAUGUAUAAAGUGGUAUCCCUUGGCAGCCUGUGACAAUCG [theeternabot_sameState_MS2_Theo_B_19] , nothing else.
band 1

Please report the category associated with GGGAGGUAGGCGGCCGCCACUGAUUUUCAUAUAUAUAUAACAUGAGGAUCACCCAUGUAGAUAUACAGGACCGGGCCUAUUUUUU [aaaF] , nothing else.
band 1

Please report the category associated with UAAAACAUGAGGAUCACCCAUGUAAAAGAUACCAGAGUGAUGAUCCUCCCUUGGCAGCUUAACGCUGAUUGAUUACAAUCAGCGA [Mat - Same State Theophlline A - Mod of Eli - D21] , nothing else.
band 3

Please report the category associated with UUCGUUUGCGGAAGGAGCGACGGACAUCGGUGAACAACGCACAUGAGGAUCACCCAUGUACGUCAGGUAGGUCGCCGCUAAGAGU [XArg-B3] , nothing else.
band 3

Please report the category associated with ACAUGAGGAUCACCCAUGUAGUGGCACGAUACCAGCUGAUCCCGUGGCCCUUGGCAGCGUCCGGUGUGGUGCGCCGGGUUGGAGC [BBBMULLIN] , nothing else.
band 3

Please report the category associated with GAUGAACUAUUUGAUACCAGACUACAUGAGGAUCACCCAUGUGCGCGUCGUCCUCUGCCAGUCCCUUGGCAGCAAAUAGUUUAUC [XTheo B #9] , nothing else.
band 3

Please report the category associated with UUGUUGUUUGGAAGGAGCGUGUAUGAGUUAGAACAUGAGGAUCACCCAUGUUGGAUGAUAGCACAGGUAGGUCGCCGGGUGGUGG [11.Y] , nothing else.
band 1

Please report the category associated with ACAUGAGGAUCACCCAUGUUUGUUGUUCCUCGAGGACCGGUACGGCCGCCACUCGAACGAGUGGCGCGCGCGCGCGCGCGCGCGC [aMa] , nothing else.
band 2

Please report the category associated with GGAUAGAUAGGAGAUACCAGAUACAUCAACAUGAGGAUCACCCAUGUGUCUGCACUAAGUGUCCCUUGGCAGCUCGGAGAUCUGA [#16 Same State - Theophylline B] , nothing else.
band 2

Each recorded value in this set is attributed to the supplement of paper PMC9170038.
